- Test system: Mus musculus
- Experiment description: Percentage of the number of platelets for the treated versus mitomycin C(MMC) control group in the MMC-induced thrombocytopenic mice at a dose of 32 mg/kg following peroral administration
- Assay type: functional
- Condition set: route oral
# No. of platelets per record follows
Numeric answer only, unit % assumed.

Nc1ncc([S+]([O-])c2cccnc2)s1 (stereo not given)	115

Bench note, Mus musculus: entry "Nc1ncc(S(=O)(=O)c2ccccn2)s1" , its No. of platelets = 143

Bench note, Mus musculus: entry Nc1ncc([S+]([O-])c2ccccn2)s1 (stereo not given) , its No. of platelets = 154

Bench note, Mus musculus: entry Nc1ncc([S+]([O-])c2nc3ccccc3[nH]2)s1 (stereo not given) , its No. of platelets = 112

Bench note, Mus musculus: entry Nc1ncc([S+]([O-])c2cccc3cccnc23)s1 (stereo not given) , its No. of platelets = 123

Bench note, Mus musculus: entry [O-][S+](c1ccccn1)c1cncs1 (stereo not given) , its No. of platelets = 148

Bench note, Mus musculus: entry Nc1ncc([S+]([O-])c2ccc3ccccc3n2)s1 (stereo not given) , its No. of platelets = 153

Bench note, Mus musculus: entry Nc1ncc([S+]([O-])c2ccc3cccnc3n2)s1 (stereo not given) , its No. of platelets = 130

Bench note, Mus musculus: entry "Nc1ccc(S(=O)(=O)c2ccc(N)cc2)cc1" , its No. of platelets = 125

Bench note, Mus musculus: entry Nc1ncc([S+]([O-])c2ncccn2)s1 (stereo not given) , its No. of platelets = 116
